tested on: BT474 (human breast carcinoma); assay: In vitro tumor cell proliferation assay (Cell Titer-Glo luminescent cell viability), BT474; type: cell-based; conditions: BT-474, 72 h, BT474 cells, 72 hours of drug exposure, ATP luminescence readout, read-out: IC50, anti-proliferative activity (inhibition of cell proliferation)
pIC50: −log10 of the molar value.
readout: pIC50

Would you please look over these solved cases?
>  <compound>
Fc1ccc(Nc2ncnc3sc4c(c23)CCc2nn(CCn3ccnc3)cc2-4)cc1Cl [Example 12]

>  <pIC50>
≥ 5.30

$$$$
>  <compound>
O[C@@H]1CCN(CCn2cc3c(n2)CCc2c-3sc3ncnc(Nc4ccc(F)c(Cl)c4)c23)C1 [Example 33]

>  <pIC50>
≥ 5.30

$$$$
>  <compound>
O[C@H](CN1CCSCC1)Cn1cc2c(n1)CCc1c-2sc2ncnc(Nc3ccc(OCc4cccc(F)c4)c(Cl)c3)c12 [Example 139]

>  <pIC50>
≥ 6.00

$$$$

Here is the next item to consider.
Lookup: Entry under review: Fc1cccc(COc2ccc(Nc3ncnc4sc5c(c34)CCc3c-5cnn3CCN3CCN(Cc4ccncc4)CC3)cc2Cl)c1 [Example 263] . Reported pIC50?
Found: ≥ 6.00

====

test system: BT474 (human breast carcinoma); assay: In vitro tumor cell proliferation assay (Cell Titer-Glo luminescent cell viability), BT474; assay type: cell-based; conditions: BT-474, 72 h, BT474 cells, 72 hours of drug exposure, ATP luminescence readout, read-out: IC50, anti-proliferative activity (inhibition of cell proliferation)
pIC50: −log10 of the molar value. Counter-ions that a name gives are not always drawn.
readout: pIC50

Would you please look over these solved cases?
>  <molecule>
Cc1cccc(COc2ccc(Nc3ncnc4sc5c(c34)CCc3nn(CCOS(C)(=O)=O)cc3-5)cc2Cl)n1

>  <endpoint.result>
≥ 5.30

$$$$
>  <molecule>
CN1CCN(CCn2cc3c(n2)CCc2c-3sc3ncnc(Nc4ccc(OCc5ccccc5Cl)c(Cl)c4)c23)CC1

>  <endpoint.result>
≥ 6.00

$$$$
>  <molecule>
CS(=O)(=O)OCCn1cc2c(n1)CCc1c-2sc2ncnc(Nc3ccc(OCc4ccccc4)c(Cl)c3)c12

>  <endpoint.result>
≥ 6.00

$$$$

Here is the next item to consider.
Lookup: Param readout = pIC50; param system = BT474 (human breast carcinoma); param query = OCCN(CCO)CCn1ncc2c1CCc1c-2sc2ncnc(Nc3ccc(F)c(Cl)c3)c12 [Example 91, trifluoroacetate] ; response: value
Found: ≥ 5.30

====

test system: BT474 (human breast carcinoma); assay: In vitro tumor cell proliferation assay (Cell Titer-Glo luminescent cell viability), BT474; type: cell-based; settings: BT-474, 72 h, BT474 cells, 72 hours of drug exposure, ATP luminescence readout, read-out: IC50, anti-proliferative activity (inhibition of cell proliferation)
pIC50: −log10 of the molar value. Counter-ions that a name gives are not always drawn.
readout: pIC50

Would you please look over these solved cases?
>  <compound>
NC[C@@H](O)Cn1cc2c(n1)CCc1c-2sc2ncnc(Nc3ccc(OCc4cccc(F)c4)c(Cl)c3)c12 [Example 160, trifluoroacetate]

>  <pIC50>
≥ 5.30

$$$$
>  <compound>
O=C(Cn1ncc2c1CCc1c-2sc2ncnc(Nc3ccc(OCc4cccc(F)c4)c(Cl)c3)c12)Nc1cccnc1 [Example 210]

>  <pIC50>
≥ 6.00

$$$$
>  <compound>
CC(C)NC[C@@H](O)Cn1cc2c(n1)CCc1c-2sc2ncnc(Nc3ccc(OCc4cccc(F)c4)c(Cl)c3)c12 [Example 159, trifluoroacetate]

>  <pIC50>
≥ 5.30

$$$$

Lookup: Entry under review: CN(C)[C@H]1CCN(CC(=O)N2CCC(Cn3cc4c(n3)CCc3c-4sc4ncnc(Nc5ccc(OCc6cccc(F)c6)c(Cl)c5)c34)CC2)C1 [Example 235] . Reported pIC50?
Found: ≥ 6.00

Lookup: Entry under review: Fc1ccc(Nc2ncnc3sc4c(c23)CCc2nn(CCN3CCCCC3)cc2-4)cc1Cl [Example 11] . Reported pIC50?
Found: ≥ 5.30

Lookup: Entry under review: CS(=O)(=O)CCNCCn1cc2c(n1)CCc1c-2sc2ncnc(Nc3ccc(OCc4cccc(F)c4)c(Cl)c3)c12 [Example 78] . Reported pIC50?
Found: ≥ 6.00

====

tested on: BT474 (human breast carcinoma); assay: In vitro tumor cell proliferation assay (Cell Titer-Glo luminescent cell viability), BT474; assay type: cell-based; conditions: BT-474, 72 h, BT474 cells, 72 hours of drug exposure, ATP luminescence readout, read-out: IC50, anti-proliferative activity (inhibition of cell proliferation)
Where a name gives a salt, the structure may show the parent alone.
readout: IC50

Would you please look over these solved cases?
>  <molecule>
Cc1cccc(COc2ccc(Nc3ncnc4sc5c(c34)CCc3nn(CCN4CCN(C)CC4)cc3-5)cc2Cl)c1 [Example 330]

>  <IC50>
≤ 5000 nM

$$$$
>  <molecule>
O=C(CN1CCOCC1)N1CCC(Cn2cc3c(n2)CCc2c-3sc3ncnc(Nc4ccc(OCc5cccc(F)c5)c(Cl)c4)c23)CC1 [Example 238]

>  <IC50>
≤ 1000 nM

$$$$
>  <molecule>
COc1cccc(COc2ccc(Nc3ncnc4sc5c(c34)CCc3nn(CCN4CCN(C)CC4)cc3-5)cc2Cl)c1 [Example 324]

>  <IC50>
≤ 5000 nM

$$$$
>  <molecule>
OCCn1cc2c(n1)CCc1c-2sc2ncnc(Nc3ccc(OCc4cccc(F)c4)c(Cl)c3)c12 [Example 56]

>  <IC50>
≤ 1000 nM

$$$$
>  <molecule>
c1ccc(Cn2ncc3cc(Nc4ncnc5sc6c(c45)CCc4nn(CCN5CCNCC5)cc4-6)ccc32)cc1 [Example 306]

>  <IC50>
≤ 1000 nM

$$$$
>  <molecule>
Fc1cccc(COc2ccc(Nc3ncnc4sc5c(c34)CCc3nn(CCNCCN4CCOCC4)cc3-5)cc2Cl)c1 [Example 68]

>  <IC50>
≤ 1000 nM

$$$$

Lookup: Entry under review: O=C(O)Cn1ncc2c1CCc1c-2sc2ncnc(Nc3ccc(OCc4cccc(F)c4)c(Cl)c3)c12 [Example 191] . Reported IC50?
Found: ≤ 50000 nM

Lookup: Entry under review: CC(C)(C)OC(=O)N1CCC(CCn2cc3c(n2)CCc2c-3sc3ncnc(Nc4ccc(OCc5cccc(F)c5)c(Cl)c4)c23)CC1 [Example 246] . Reported IC50?
Found: ≤ 5000 nM

Lookup: Entry under review: O=C(CCl)N1CCC(Cn2cc3c(n2)CCc2c-3sc3ncnc(Nc4ccc(OCc5cccc(F)c5)c(Cl)c4)c23)CC1 [Example 233, trifluoroacetate] . Reported IC50?
Found: ≤ 1000 nM

====

test system: BT474 (human breast carcinoma); assay: In vitro tumor cell proliferation assay (Cell Titer-Glo luminescent cell viability), BT474; assay type: cell-based; conditions: BT-474, 72 h, BT474 cells, 72 hours of drug exposure, ATP luminescence readout, read-out: IC50, anti-proliferative activity (inhibition of cell proliferation)
Where a name gives a salt, the structure may show the parent alone.
readout: IC50

Lookup: Entry under review: O[C@H](Cn1ccnc1)Cn1ncc2c1CCc1c-2sc2ncnc(Nc3ccc(OCc4cccc(F)c4)c(Cl)c3)c12 [Example 170, trifluoroacetate] . Reported IC50?
Found: ≤ 1000 nM

====

system: BT474 (human breast carcinoma); experiment: In vitro tumor cell proliferation assay (Cell Titer-Glo luminescent cell viability), BT474; type: cell-based; settings: BT-474, 72 h, BT474 cells, 72 hours of drug exposure, ATP luminescence readout, read-out: IC50, anti-proliferative activity (inhibition of cell proliferation)
Counter-ions that a name gives are not always drawn.
readout: IC50

Would you please look over these solved cases?
>  <molecule>
CCN(CC)CC(=O)N1CCC(n2cc3c(n2)CCc2c-3sc3ncnc(Nc4ccc(OCc5cccc(F)c5)c(Cl)c4)c23)CC1 [Example 220]

>  <readout>
IC50

>  <endpoint.result>
≤ 1 µM

$$$$
>  <molecule>
CN1CCN(CCn2cc3c(n2)CCc2c-3sc3ncnc(Nc4cc(Cl)c(Cl)cc4F)c23)CC1 [Example 344, trifluoroacetate]

>  <readout>
IC50

>  <endpoint.result>
≤ 5 µM

$$$$

Here is the next item to consider.
Lookup: Entry under review: CN(C)CCNCCn1cc2c(n1)CCc1c-2sc2ncnc(Nc3ccc(OCc4cccc(F)c4)c(Cl)c3)c12 [Example 67] . Reported IC50?
Found: ≤ 1 µM
